# Target Of Assay: Lysine-specific demethylase 4A (Homo sapiens) (UniProt O75164)
# Sequence (O75164 whole entry, looked up, the tested form may be a part): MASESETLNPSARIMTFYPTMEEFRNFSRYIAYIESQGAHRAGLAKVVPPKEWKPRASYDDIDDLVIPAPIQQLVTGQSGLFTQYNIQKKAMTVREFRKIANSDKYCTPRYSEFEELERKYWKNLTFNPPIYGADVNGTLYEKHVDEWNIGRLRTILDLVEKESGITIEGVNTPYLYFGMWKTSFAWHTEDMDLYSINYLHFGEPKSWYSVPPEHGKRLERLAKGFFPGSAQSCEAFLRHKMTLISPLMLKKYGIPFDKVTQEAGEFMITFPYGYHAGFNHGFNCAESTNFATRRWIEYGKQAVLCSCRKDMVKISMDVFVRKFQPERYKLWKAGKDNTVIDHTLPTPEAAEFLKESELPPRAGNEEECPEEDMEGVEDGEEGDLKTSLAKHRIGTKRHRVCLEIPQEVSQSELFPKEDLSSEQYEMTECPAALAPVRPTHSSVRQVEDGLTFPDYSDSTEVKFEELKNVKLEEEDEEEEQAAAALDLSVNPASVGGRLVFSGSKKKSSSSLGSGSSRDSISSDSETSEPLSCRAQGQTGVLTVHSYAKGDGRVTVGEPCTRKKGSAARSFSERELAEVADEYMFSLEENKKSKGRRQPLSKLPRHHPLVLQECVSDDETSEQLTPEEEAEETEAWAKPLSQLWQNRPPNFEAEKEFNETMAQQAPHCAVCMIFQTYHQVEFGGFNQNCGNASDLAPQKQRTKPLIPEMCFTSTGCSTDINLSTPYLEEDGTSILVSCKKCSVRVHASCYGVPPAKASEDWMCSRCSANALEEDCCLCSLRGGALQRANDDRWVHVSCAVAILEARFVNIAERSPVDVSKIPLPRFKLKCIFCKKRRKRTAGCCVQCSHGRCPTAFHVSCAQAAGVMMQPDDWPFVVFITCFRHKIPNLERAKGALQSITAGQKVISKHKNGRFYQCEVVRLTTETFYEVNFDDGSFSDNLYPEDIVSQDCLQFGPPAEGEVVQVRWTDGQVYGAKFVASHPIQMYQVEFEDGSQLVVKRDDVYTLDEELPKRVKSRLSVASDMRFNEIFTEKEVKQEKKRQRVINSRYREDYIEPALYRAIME
# Experiment Description: qHTS Assay for Inhibitors of JMJD2A-Tudor Domain; note: nearly all actives have a fitted effect of over 50% in size
# Conditions: AlphaScreen JMJD2A-Tudor / H3K4me3 peptide binding; series mostly up to 114 µM
In all, about 390,000 compounds went through this assay and about 17,000 (4.4%) were called active. Not shown: some 8% with an inconclusive outcome. Calls come from the whole dose curve; as a rule, active = well fitted inhibition curve with a large enough effect; inconclusive = small, poorly fitted or top-dose-only effect; inactive = no such curve, though single readings can be large or run the other way. Shown is part of a subset that was picked to be rich in actives.
Output constraint: value belongs to t = active, f = inactive

Test call for this compound, please: Cc1ccc(CCNC(=O)c2ccc(CNS(=O)(=O)c3ccc(C)cc3)cc2)cc1
f

Same again, this time with CCc1cc2c(cc3c(=O)n(CC(=O)N4CCN(c5cc(Cl)ccc5C)CC4)ncn32)s1
f

Same again, this time with COCCCNC(=O)c1ccc(CNS(=O)(=O)c2ccc(NC(C)=O)cc2)cc1
t

meta.source: PubChem BioAssay AID504339
